system: M. abscessus; experiment: MIC by resazurin (REMA) assay against Mycobacterium, test strain 23; type: cell-based; conditions: Mycobacteroides abscessus; test strain 23, M. abscessus, resazurin; read-out: MIC
Assay readout: log10 MIC (log10 of the value in µg/mL)
All values: log10 MIC [µg/mL].

Known results for molecules:
>  <Molecule>
C/C=C1\NC(=O)[C@H]([C@@H](C)O)NC(=O)c2csc(n2)-c2ccc(-c3nc(-c4nc(C(=O)NC5(C(=O)NCCN6CCN(C[C@@H](O)CO)CC6)CC5)cs4)cs3)nc2-c2csc(n2)[C@H]([C@@H](C)O)NC(=O)c2csc(n2)[C@H](C(C)C)NC(=O)c2csc1n2

>  <log10 MIC>
-0.31

$$$$
>  <Molecule>
C/C=C1\NC(=O)[C@H]([C@@H](C)O)NC(=O)c2csc(n2)-c2ccc(-c3nc(-c4nc(C(=O)NC5(C(=O)NCCN6CCN(C(C)C)CC6)CC5)cs4)cs3)nc2-c2csc(n2)[C@H]([C@@H](C)O)NC(=O)c2csc(n2)[C@H](C(C)C)NC(=O)c2csc1n2

>  <log10 MIC>
-0.91

$$$$
>  <Molecule>
C/C=C1\NC(=O)[C@H]([C@@H](C)O)NC(=O)c2csc(n2)-c2ccc(-c3nc(-c4nc(C(=O)NC5(C(=O)NCCCN6CCSCC6)CC5)cs4)cs3)nc2-c2csc(n2)[C@H]([C@@H](C)O)NC(=O)c2csc(n2)[C@H](C(C)C)NC(=O)c2csc1n2

>  <log10 MIC>
-0.76

$$$$
>  <Molecule>
C/C=C1\NC(=O)[C@H]([C@@H](C)O)NC(=O)c2csc(n2)-c2ccc(-c3nc(-c4nc(C(=O)NC5(C(=O)NCCN6CCN(S(N)(=O)=O)CC6)CC5)cs4)cs3)nc2-c2csc(n2)[C@H]([C@@H](C)O)NC(=O)c2csc(n2)[C@H](C(C)C)NC(=O)c2csc1n2

>  <log10 MIC>
-0.25

$$$$
>  <Molecule>
CC[C@H]1OC(=O)[C@H](C)[C@@H](O[C@H]2C[C@@](C)(OC)[C@@H](O)[C@H](C)O2)[C@H](C)[C@@H](O[C@@H]2O[C@H](C)C[C@H](N(C)C)[C@H]2O)[C@](C)(OC)C[C@@H](C)C(=O)[C@H](C)[C@@H](O)[C@]1(C)O [Cla, Clarithromycin, reference compound]

>  <log10 MIC>
0.11

$$$$
>  <Molecule>
C/C=C1\NC(=O)[C@H]([C@@H](C)O)NC(=O)c2csc(n2)-c2ccc(-c3nc(-c4nc(C(=O)NC5(C(=O)NCCCN6C(=O)CNC6=O)CC5)cs4)cs3)nc2-c2csc(n2)[C@H]([C@@H](C)O)NC(=O)c2csc(n2)[C@H](C(C)C)NC(=O)c2csc1n2

>  <log10 MIC>
-0.43

$$$$

Req: Look up log10 MIC for this molecule: `C/C=C1\NC(=O)[C@H]([C@@H](C)O)NC(=O)c2csc(n2)-c2ccc(-c3nc(-c4nc(C(=O)NC5(C(=O)NCCCN6CCOCC6)CC5)cs4)cs3)nc2-c2csc(n2)[C@H]([C@@H](C)O)NC(=O)c2csc(n2)[C@H](C(C)C)NC(=O)c2csc1n2`
Resp: -0.49

Req: Look up log10 MIC for this molecule: `C/C=C1\NC(=O)[C@H]([C@@H](C)O)NC(=O)c2csc(n2)-c2ccc(-c3nc(-c4nc(C(=O)NC5(C(=O)NCCN6CCN(CCO)CC6)CC5)cs4)cs3)nc2-c2csc(n2)[C@H]([C@@H](C)O)NC(=O)c2csc(n2)[C@H](C(C)C)NC(=O)c2csc1n2`
Resp: -0.82

Req: Look up log10 MIC for this molecule: `C/C=C1\NC(=O)[C@H]([C@@H](C)O)NC(=O)c2csc(n2)-c2ccc(-c3nc(-c4nc(C(=O)NC5(C(=O)NCCN6CCN(S(C)(=O)=O)CC6)CC5)cs4)cs3)nc2-c2csc(n2)[C@H]([C@@H](C)O)NC(=O)c2csc(n2)[C@H](C(C)C)NC(=O)c2csc1n2`
Resp: -0.37

Reference source for all entries: patent US12637478B2
